Test system: MDA-MB-231
Details: incubation time: 72 h; siRNA: siBRCA1
Each entry below carries its reported IC50 of cell viability.
measurement_type: IC50 of cell viability

- molecule: "COc1cc2c(N3CCN(C(=O)Nc4ccc(OC(C)C)cc4)CC3)ncnc2cc1OCCCN1CCCCC1 [Tandutinib]"
  measurement: "> 4.17 µM"
- molecule: "CC[C@]1(O)C[C@H]2CN(CCc3c([nH]c4ccccc34)[C@@](C(=O)OC)(c3cc4c(cc3OC)N(C=O)[C@H]3[C@@](O)(C(=O)OC)[C@H](OC(C)=O)[C@]5(CC)C=CCN6CC[C@]43[C@@H]65)C2)C1 [Vincristine]"
  measurement: "0.00532 µM"
- molecule: "C1CN1c1nc(N2CC2)nc(N2CC2)n1 [Triethylenemelamine]"
  measurement: "> 4.17 µM"
- molecule: "CC[C@@H]1C(=O)OC[C@@H]1Cc1cncn1C [Pilocarpine]"
  measurement: "> 4.17 µM"

Origin of values: the supplement of paper PMC4649846
